- Test system: primary human total T-cells
- PROCEDURE TEXT: T-cell activation assessed by cytokine secretion (GM-CSF, IFNγ, TNFα)
- Type: cell-based
- EXPERIMENTAL SETUP: CD3 alone stimulation, 1.11 μM, read-out: TNFα secretion
The following compounds are listed with their measured fold induction at 1.11 µM values.
RESULT TYPE: fold induction at 1.11 µM

1) CNCc1ccc(C(=O)Nc2cccc([C@H](C)Cc3nncn3C)c2)nc1C1CC1 = ≤ 1.5
2) Cn1cnnc1[C@@H]1C[C@@H]1c1cccc(N2Cc3c(ccnc3C(F)(F)F)C2=O)c1 = ≤ 1.5
3) Cn1cnnc1CC1(c2cccc(N3Cc4c(cc(CN5CCC6(CC6)C5)cc4C(F)(F)F)C3=O)c2)COC1 = 2.01 to 4
4) Cc1cc(C(=O)Nc2cccc([C@H](C)Cc3nncn3C)c2)nc(C2CC2)n1 = 1.51 to 2

----------
- TESTED TARGET: Cbl-b (Homo sapiens)
- PROCEDURE TEXT: Cbl-b activity assay (Cbl-b inhibition assay), TR-FRET of Cbl-b interaction with UbcH5B-Ub
- Assay type: biochemical
- EXPERIMENTAL SETUP: assay buffer with 100 mM NaCl, 60 nM Src kinase; read-out: Cbl-b activity IC50
RESULT TYPE: IC50

1) Cn1cnnc1CC1(c2cccc(NC(=O)c3csc(C(F)(F)F)n3)c2)COC1 = < 100 nM
2) Cc1conc1CC1(c2cccc(N3Cc4c(cc(CN5CCC6(CC6)C5)cc4C(F)(F)F)C3=O)c2)COC1 = < 100 nM
3) CNC(=O)COc1ccc2cnc(C(=O)Nc3cccc([C@@H](C)Sc4nncn4C)c3)cc2c1 [Compound 306b] = 3000 to 10000 nM
4) COc1ccc(C(=O)Nc2cccc([C@H](C)Sc3nncn3C)c2)nc1C1CC1 = < 100 nM

----------
The following compounds are listed with their measured fold induction at 0.625 µM values.
- System: primary human NK cells
- PROCEDURE TEXT: NK cell activation assessed by cytokine secretion (coculture with K562 NucRed target cells)
- Assay type: cell-based
- EXPERIMENTAL SETUP: K562, NK cells cocultured with K562 NucRed, 1:1 E/T, 0.625 μM compound, read-out: IFNγ secretion, fold change over baseline
- Description: Peripheral blood mononuclear cells (PBMC) were obtained either: 1) by using Ficoll-Paque™ (GE Healthcare) for separation of peripheral blood hematopoietic cells from buffy coats of healthy human donors; or 2) directly from LeukoPak donations. […] Cell free supernatants were collected and analyzed for cytokine secretion (e.g. TNFα, IFNγ, or MIP1β) by ELISA or Luminex multiplex kits following the manufacturer's protocol. […] Readouts were reported as fold change over baseline. […]
RESULT TYPE: fold induction at 0.625 µM

1. C[C@H](Cc1nncn1C)c1cccc(N2Cc3c(cc(CN4CC[C@H](F)C4)cc3C(F)(F)F)C2=O)c1 [Compound 399] = 2.01 to 5
2. C[C@H](Cc1nncn1C)c1ccnc(NC(=O)c2cccc(C(F)(F)F)n2)c1 [Compound 302] = < 1
3. C[C@H](Cc1nncn1C)c1cccc(N2Cc3c(cc(CN4CC[C@](C)(O)C4)cc3C(F)(F)F)C2=O)c1 [Compound 398] = 2.01 to 5
4. Cn1cnnc1CC1(c2cccc(N3Cc4c(cc(CN5CC[C@H](C#N)C5)cc4C(F)(F)F)C3=O)c2)COC1 [Compound 422] = 1.01 to 2

----------
- Test system: T-cell
- PROCEDURE TEXT: CD25 cell surface staining on T-cells co-stimulated with anti-CD3 and anti-CD28 antibody (Biological Example 2)
- Assay type: cell-based, human
- EXPERIMENTAL SETUP: Homo sapiens, T-cell, 1 μM compound; primary human total T-cells; baseline = anti-CD3/anti-CD28 stimulated cells without inhibitor; read-out: CD25 staining, Anti-CD3/Anti-CD28 stimulation, fold change over baseline
- Excerpt: Methods for experimentally determining increased T-cell activation, increased T-cell proliferation, decreased T-cell exhaustion, and/or decreased T-cell tolerance are well known in the art. Modulation of activity of an immune cell, such as a T-cell, a B cell or a NK cell can be measured by determining a baseline value for a parameter of interest (e.g., cytokine secretion). […] A positive response for immune cell activation can then be determined by the obtained reference value. […]
RESULT TYPE: fold induction at 1 µM

1. C[C@H]1CN(C)CCN1c1cc2c(c(C(F)(F)F)c1)CN(c1cccc([C@@](C)(F)C(F)(F)c3nncn3C)c1)C2=O = 1.01 to 1.3
2. C[C@H]1C=CCN1Cc1cc2c(c(C(F)(F)F)c1)CN(c1cccc(C3(Cc4nncn4C)COC3)c1)C2=O = 1.51 to 1.75
3. C[C@@H]1[C@@H](c2nncn2C)[C@H]1c1cccc(N2Cc3c(cccc3C(F)(F)F)C2=O)c1 = 1.31 to 1.5
4. Cn1cnnc1[C@@H]1C[C@@H]1c1cccc(N2Cc3c(cc(C#N)cc3C(F)(F)F)C2=O)c1 = 1.01 to 1.3
5. Cn1cnnc1CC1(c2cccc(N3Cc4c(cc(CN5CCC6(CC6)C5)cc4C(F)(F)F)C3=O)c2)COC1 = 1.31 to 1.5
6. Cn1cnnc1CC1(c2cccc(N3Cc4c(cc(OC5CNC5)cc4C(F)(F)F)C3=O)c2)COC1 = 1.01 to 1.3
7. Cn1cnnc1CC1(c2cccc(N3Cc4c(cc(C(F)(F)C(=O)O)cc4C(F)(F)F)C3=O)c2)COC1 = 1.01 to 1.3
8. C[C@H](Cc1nocc1C(F)(F)F)c1cccc(N2Cc3c(cc(CN4CC[C@H](F)C4)cc3C(F)(F)F)C2=O)c1 = 1.01 to 1.3

----------
The following compounds are listed with their measured IC50 values.
- TESTED TARGET: Cbl-b (Homo sapiens, UniProt Q13191)
- Sequence (Q13191 36-427): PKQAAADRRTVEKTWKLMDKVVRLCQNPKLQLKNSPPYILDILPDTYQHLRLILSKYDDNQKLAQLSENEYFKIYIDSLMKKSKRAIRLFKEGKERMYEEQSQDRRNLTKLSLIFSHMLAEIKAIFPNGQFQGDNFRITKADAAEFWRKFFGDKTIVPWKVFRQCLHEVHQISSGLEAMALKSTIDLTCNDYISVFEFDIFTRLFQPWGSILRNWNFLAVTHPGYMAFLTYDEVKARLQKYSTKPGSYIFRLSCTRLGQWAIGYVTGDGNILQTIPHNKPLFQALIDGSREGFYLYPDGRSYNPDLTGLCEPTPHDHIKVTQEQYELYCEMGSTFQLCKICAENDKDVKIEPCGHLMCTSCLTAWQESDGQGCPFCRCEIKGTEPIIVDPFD
- PROCEDURE TEXT: Cbl-b activity assay (Cbl-b inhibition assay), TR-FRET of Cbl-b interaction with UbcH5B-Ub
- Assay type: biochemical
- EXPERIMENTAL SETUP: * assay buffer containing 50 mM NaCl instead of 100 mM NaCl and 30 nM Src kinase instead of 60 nM; read-out: Cbl-b activity IC50 (μM)*
RESULT TYPE: IC50

1. Cc1ccc2ccc(C(=O)Nc3cccc(C(C)Sc4nncn4C)c3)nc2n1 (centres unmarked) [Compound 21] = > 10 µM
2. CC(Sc1nncn1C)c1ccc(F)c(NC(=O)c2ccc3ccccc3n2)c1 (centres unmarked) [Compound 96] = 3 to 10 µM
3. COc1ccc(C(C)Sc2nncn2C)cc1NC(=O)c1ccc2ccccc2n1 (centres unmarked) [Compound 97] = 1 to 3 µM
4. Cc1nc(C(=O)Nc2cccc([C@H](C)Sc3nncn3C)c2)ccc1Cl [Compound 39] = 0.301 to 1 µM
5. CC(Sc1nncn1C)c1cccc(NC(=O)c2ccc3cccnc3n2)c1 (centres unmarked) [Compound 18] = 3 to 10 µM
6. C[C@H](Sc1nncn1C)c1ccnc(NC(=O)c2cccc(C(F)(F)F)n2)c1 [Compound 102b] = 1 to 3 µM
7. CC(Sc1nncn1C)c1cccc(NC(=O)c2cc3ccccc3c(=O)[nH]2)c1 (centres unmarked) [Compound 22] = > 10 µM
8. Cc1cc(C(=O)Nc2cccc([C@H](C)Sc3nncn3C)c2)nc2ccccc12 [Compound 30] = 0.301 to 1 µM
9. Cc1ccc(C(=O)Nc2cccc([C@H](C)Sc3nncn3C)c2)nc1C [Compound 35] = 0.301 to 1 µM
10. CC(Sc1nncn1C)c1cccc(NC(=O)c2ccc3ncccc3n2)c1 (centres unmarked) [Compound 20] = 3 to 10 µM
11. Cc1cnc(C(=O)Nc2cccc([C@H](C)Sc3nncn3C)c2)cc1C [Compound 36] = 1 to 3 µM
12. CC(Sc1nncn1C)c1cccc(NC(=O)c2cc3ccc(Cl)cc3cn2)c1 (centres unmarked) [Compound 25] = 1 to 3 µM
13. CC(Sc1nncn1C)c1cccc(NC(=O)c2cnc3ccccc3n2)c1 (centres unmarked) [Compound 17] = 3 to 10 µM
14. CC(Sc1nccn1C)c1ccc(F)c(NC(=O)c2cccc(C(F)(F)F)n2)c1 (centres unmarked) [Compound 101] = 3 to 10 µM
15. C=CCC(Sc1nncn1C)c1cccc(NC(=O)c2cc3ccccc3cn2)c1 (centres unmarked) [Compound 135] = 3 to 10 µM
16. CC(C)c1ccnc(C(=O)Nc2cccc([C@H](C)Sc3nncn3C)c2)c1 [Compound 37] = 3 to 10 µM
17. CC(C)c1cccc(C(=O)Nc2cccc([C@H](C)Sc3nncn3C)c2)n1 [Compound 33] = 0.301 to 1 µM
18. CC(Sc1nncn1C)c1cccc(NC(=O)c2ccc3c(n2)CCCC3)c1 (centres unmarked) [Compound 23] = 1 to 3 µM
19. C[C@H](Sc1nncn1C)c1cccc(NC(=O)c2cc(C(F)(F)F)c(Cl)cn2)c1 [Compound 40] = 3 to 10 µM
20. C[C@H](Sc1nncn1C)c1ccnc(NC(=O)c2ccc3ccccc3n2)c1 [Compound 112] = 1 to 3 µM
21. C[C@H](Sc1nncn1C1CC1)c1cccc(NC(=O)c2cc3ccccc3cn2)c1 [Compound 99] = 3 to 10 µM
22. CCC(Sc1nncn1C)c1cccc(NC(=O)c2ccc3ccccc3n2)c1 (centres unmarked) [Compound 136] = 3 to 10 µM
23. C[C@@H](Sc1nncn1C)c1ccnc(NC(=O)c2cccc(C(F)(F)F)n2)c1 [Compound 102a] = 3 to 10 µM
24. CCC(Sc1nncn1C)c1cccc(NC(=O)c2cc3ccccc3cn2)c1 (centres unmarked) [Compound 137] = 3 to 10 µM
25. Cc1ccc2cc(C(=O)Nc3cccc(C(C)Sc4nncn4C)c3)cnc2c1 (centres unmarked) [Compound 15] = > 10 µM
26. CC(Sc1nncn1C)c1cc(CO)cc(NC(=O)c2ccc3ccccc3n2)c1 (centres unmarked) [Compound 132] = > 10 µM
27. COCC(Sc1nncn1C)c1cccc(NC(=O)c2cccc(C(F)(F)F)n2)c1 (centres unmarked) [Compound 133] = 3 to 10 µM
28. CC(Sc1nncn1C)c1cccc(NC(=O)c2cc3ccncc3cn2)c1 (centres unmarked) [Compound 19] = 3 to 10 µM
29. CC(Sc1nncn1C)c1cccc(N2Cc3c(cccc3C(F)(F)F)C2=O)c1 (centres unmarked) [Compound 166] = 0.301 to 1 µM
30. CC(Sc1nncn1C)c1cccc(NC(=O)c2cc3c(cn2)CCCC3)c1 (centres unmarked) [Compound 24] = 3 to 10 µM
31. CC(C)c1cccc(C(=O)Nc2cccc([C@H](C)Sc3nncn3C)c2)c1 [Compound 31] = 3 to 10 µM
32. C[C@H](Sc1nncn1C)c1cccc(NC(=O)c2cc(C(F)(F)F)ccn2)c1 [Compound 32] = 1 to 3 µM
33. C[C@H](Sc1nncn1C)c1cccc(NC(=O)c2cccc(C(F)(F)F)c2)c1 [Compound 29] = 3 to 10 µM
34. CC(Sc1nncn1C)c1cccc(N2Cc3ccccc3C2=O)c1 (centres unmarked) [Compound 162] = 3 to 10 µM
35. C=CCC(Sc1nncn1C)c1cccc(NC(=O)c2ccc3ccccc3n2)c1 (centres unmarked) [Compound 134] = 1 to 3 µM

All values here come from patent US20220324835A1.
